experiment: Cell viability of neurons pre-incubated 48 h with test item only (no AβO), MTT assay; type: cell-based; conditions: C57BL6/J, mouse, mouse primary cortical neurons, 1 nM compound C only, 48 h pre-incubation

Smiles Str | viability at 48 h, 0.001 µM [%]
CCCCCCCCCCCCCCC(=O)OCC(COC(=O)CCCCCCCCCCCCCC)OC(=O)CCCCCCCCCCCCCC | 117
